Molecular target: hAR (Homo sapiens, UniProt P10275)
Construct: expressed in transfected cells; host or cells: CV-1 cells (African green monkey kidney fibroblasts)
Sequence (P10275 1-920): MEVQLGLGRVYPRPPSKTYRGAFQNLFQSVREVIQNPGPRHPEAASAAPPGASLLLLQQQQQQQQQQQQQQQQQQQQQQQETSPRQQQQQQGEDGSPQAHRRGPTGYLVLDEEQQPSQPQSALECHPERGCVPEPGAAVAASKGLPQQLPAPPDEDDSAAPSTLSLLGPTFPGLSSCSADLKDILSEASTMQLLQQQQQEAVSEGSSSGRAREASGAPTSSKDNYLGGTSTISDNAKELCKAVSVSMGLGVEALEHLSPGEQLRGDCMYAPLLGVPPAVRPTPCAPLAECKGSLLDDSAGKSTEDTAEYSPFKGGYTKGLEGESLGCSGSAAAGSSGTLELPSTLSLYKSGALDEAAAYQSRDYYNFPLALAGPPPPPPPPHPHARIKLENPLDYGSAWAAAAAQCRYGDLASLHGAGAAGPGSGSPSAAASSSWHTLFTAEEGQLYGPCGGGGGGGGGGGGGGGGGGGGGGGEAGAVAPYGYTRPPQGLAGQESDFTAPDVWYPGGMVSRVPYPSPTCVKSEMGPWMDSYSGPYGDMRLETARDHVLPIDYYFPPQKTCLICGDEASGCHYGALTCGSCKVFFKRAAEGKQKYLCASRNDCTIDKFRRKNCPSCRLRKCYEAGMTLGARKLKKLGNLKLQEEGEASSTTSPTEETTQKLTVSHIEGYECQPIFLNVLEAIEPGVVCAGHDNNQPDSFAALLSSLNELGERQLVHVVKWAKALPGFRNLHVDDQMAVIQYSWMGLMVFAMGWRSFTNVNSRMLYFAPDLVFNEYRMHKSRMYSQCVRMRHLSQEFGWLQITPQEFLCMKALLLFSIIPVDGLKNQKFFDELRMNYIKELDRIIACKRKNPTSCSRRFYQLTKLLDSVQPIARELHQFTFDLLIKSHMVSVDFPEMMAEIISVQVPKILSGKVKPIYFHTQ
Assay: co-transfection assay, AR agonist, CV-1 cells
Type: cell-based
MEASURED PROPERTY: EC50

# COMPOUND, EC50
measured = [
    ("O=c1[nH]c2cc3c(cc2c(C(F)(F)F)c1Cl)N(CC(F)(F)F)CCO3 [Compound 107]", "26 nM"),
]

Attention now shifts to the item below.
What does the record list as EC50 for O=c1cc(C(F)F)c2cc3c(cc2[nH]1)OCCN3CC(F)(F)F [Compound 108] ?
14 nM

* * *

biological target: GR (Homo sapiens, UniProt P04150); experiment: co-transfection assay, GR antagonist
Sequence (P04150 whole entry): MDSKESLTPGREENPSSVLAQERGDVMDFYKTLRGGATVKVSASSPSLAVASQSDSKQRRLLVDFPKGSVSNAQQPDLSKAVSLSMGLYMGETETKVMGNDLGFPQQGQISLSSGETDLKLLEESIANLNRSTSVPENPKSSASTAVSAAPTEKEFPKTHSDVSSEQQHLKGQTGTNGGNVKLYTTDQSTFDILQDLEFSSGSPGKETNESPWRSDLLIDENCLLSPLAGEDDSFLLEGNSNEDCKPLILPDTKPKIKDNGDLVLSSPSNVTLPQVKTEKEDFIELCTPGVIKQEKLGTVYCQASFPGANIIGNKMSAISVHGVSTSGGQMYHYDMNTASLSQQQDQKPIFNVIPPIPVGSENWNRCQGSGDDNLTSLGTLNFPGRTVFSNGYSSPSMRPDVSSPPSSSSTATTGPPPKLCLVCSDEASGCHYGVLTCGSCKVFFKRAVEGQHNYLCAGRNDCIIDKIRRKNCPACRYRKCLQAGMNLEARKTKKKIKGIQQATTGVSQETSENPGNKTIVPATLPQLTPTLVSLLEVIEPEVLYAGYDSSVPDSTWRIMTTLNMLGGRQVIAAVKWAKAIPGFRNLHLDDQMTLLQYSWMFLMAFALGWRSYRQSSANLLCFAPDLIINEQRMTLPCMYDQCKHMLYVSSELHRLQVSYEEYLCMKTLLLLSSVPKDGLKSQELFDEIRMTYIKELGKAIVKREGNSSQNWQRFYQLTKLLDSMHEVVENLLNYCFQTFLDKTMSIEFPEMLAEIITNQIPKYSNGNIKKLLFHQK
API: label(entry) gives Met if the entry's IC50 is strictly smaller than 3 µM; on equality or larger values it gives Not met.

The examples below pair each entry with its known result.
# MOLECULE, ASSIGNED LABEL
data = [
    ("CCN1CCOc2cc3[nH]c(=O)cc(C(F)(F)F)c3cc21", "Not met"),
    ("CCN1CCOc2cc3c(cc21)c(C(F)(F)F)cc(=O)n3C", "Met"),
    ("CC1COc2cc3[nH]c(=O)cc(C(F)(F)F)c3cc2N1CC(F)(F)F (racemic)", "Not met"),
    ("CN1CCOc2cc3[nH]c(=O)cc(C(F)(F)F)c3cc21", "Not met"),
    ("CN1CCOc2cc3c(cc21)c(C(F)(F)F)cc(=O)n3C", "Not met"),
    ("O=C1COc2cc3[nH]c(=O)cc(C(F)(F)F)c3cc2N1CC(F)(F)F", "Not met"),
    ("CC1CN(CC(F)(F)F)c2cc3c(C(F)(F)F)cc(=O)[nH]c3cc2O1 (racemic)", "Not met"),
    ("C[C@]1(O)CC[C@H]2[C@@H]3CCC4=CC(=O)CC[C@]4(C)[C@@]3(F)[C@@H](O)C[C@@]21C", "Met"),
    ("O=c1cc(C(F)(F)F)c2cc3c(cc2[nH]1)OCCN3CC1CC1", "Met"),
]

Read the next record carefully.
Confirm or reject: IC50 of `O=c1cc(C(F)(F)F)c2cc3c(cc2[nH]1)OCCN3CC(F)(F)F` lies strictly below 3 µM
Not met

* * *

Recorded measurements of AR Agonist CV-1 Cells Efficacy (%), one per entry
target: hAR (Homo sapiens); construct: expressed in transfected cells; host or cells: CV-1 cells (African green monkey kidney fibroblasts); test: co-transfection assay, AR agonist, CV-1 cells; format: cell-based; conditions: hAR in CV-1 cells; relative to maximum LUC production by reference agonist
Unit % implied. Number only.

What does the record list as AR Agonist CV-1 Cells Efficacy (%) for `O=c1[nH]c2cc3c(cc2c(C(F)(F)F)c1F)N(CC(F)(F)F)CCO3` ?
80

What does the record list as AR Agonist CV-1 Cells Efficacy (%) for CC1COc2cc3[nH]c(=O)cc(C(F)(F)F)c3cc2N1CC(F)(F)F (single isomer, unassigned; (-)) [Compound 125] ?
74

What does the record list as AR Agonist CV-1 Cells Efficacy (%) for `O=c1cc(C(F)F)c2cc3c(cc2[nH]1)OCCN3CC(F)(F)F` ?
80

What does the record list as AR Agonist CV-1 Cells Efficacy (%) for CC1COc2cc3[nH]c(=O)cc(C(F)(F)F)c3cc2N1CC(F)(F)F (racemic) [Compound 123] ?
91

* * *

Molecular target: hAR (Homo sapiens)
Construct: expressed in transfected cells; host or cells: CV-1 cells (African green monkey kidney fibroblasts)
Sequence (P10275 1-920): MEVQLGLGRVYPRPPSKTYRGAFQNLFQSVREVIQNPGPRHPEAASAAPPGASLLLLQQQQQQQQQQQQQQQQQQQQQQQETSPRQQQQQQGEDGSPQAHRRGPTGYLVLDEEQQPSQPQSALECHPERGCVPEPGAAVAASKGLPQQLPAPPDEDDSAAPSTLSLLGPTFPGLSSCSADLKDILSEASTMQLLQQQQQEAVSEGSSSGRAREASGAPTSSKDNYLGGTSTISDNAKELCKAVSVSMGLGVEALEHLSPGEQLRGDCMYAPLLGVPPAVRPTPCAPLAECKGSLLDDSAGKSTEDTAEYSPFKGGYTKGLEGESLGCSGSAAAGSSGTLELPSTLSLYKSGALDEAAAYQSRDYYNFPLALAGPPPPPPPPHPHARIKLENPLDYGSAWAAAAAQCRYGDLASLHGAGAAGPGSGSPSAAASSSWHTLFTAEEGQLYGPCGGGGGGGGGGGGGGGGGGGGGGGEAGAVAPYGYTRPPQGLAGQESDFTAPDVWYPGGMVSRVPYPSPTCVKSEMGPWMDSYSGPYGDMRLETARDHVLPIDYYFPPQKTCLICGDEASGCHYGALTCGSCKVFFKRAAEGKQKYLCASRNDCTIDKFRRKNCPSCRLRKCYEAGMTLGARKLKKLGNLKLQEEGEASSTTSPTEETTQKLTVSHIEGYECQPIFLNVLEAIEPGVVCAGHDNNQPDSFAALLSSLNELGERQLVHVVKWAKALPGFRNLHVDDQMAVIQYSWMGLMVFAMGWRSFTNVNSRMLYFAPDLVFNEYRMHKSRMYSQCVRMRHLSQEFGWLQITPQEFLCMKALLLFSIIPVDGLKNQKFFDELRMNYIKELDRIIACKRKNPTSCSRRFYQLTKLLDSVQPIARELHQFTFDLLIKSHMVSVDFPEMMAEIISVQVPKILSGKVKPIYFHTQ
Experiment: co-transfection assay, AR agonist, CV-1 cells
Type: cell-based
Details: hAR in CV-1 cells; relative to maximum LUC production by reference agonist
MEASURED PROPERTY: AR Agonist CV-1 Cells Efficacy (%)

What does the record list as AR Agonist CV-1 Cells Efficacy (%) for CC1COc2cc3[nH]c(=O)cc(C(F)(F)F)c3cc2N1CC(F)(F)F (single isomer, unassigned; (+)) [Compound 124] ?
54%

* * *

target: hAR (Homo sapiens, UniProt P10275); construct: expressed in transfected cells; host or cells: CV-1 cells (African green monkey kidney fibroblasts); assay: co-transfection assay, AR antagonist (in presence of DHT), CV-1 cells; assay type: cell-based; conditions: hAR in CV-1 cells; maximal inhibition, DHT at EC50
MEASURED PROPERTY: AR Antagonist CV-1 Cells Efficacy (%)
Unit % implied. Number only.

# COMPOUND, ASSAY RESULT
rows = [
    ("Cn1c(=O)cc(C(F)(F)F)c2cc3c(cc21)OCCN3CC(F)(F)F [Compound 109]", 57),
    ("O=c1cc(C(F)(F)F)c2cc3c(cc2[nH]1)OCCN3 [Compound 120]", 69),
    ("O=C1COc2cc3[nH]c(=O)cc(C(F)(F)F)c3cc2N1CC(F)(F)F [Compound 137]", 84),
    ("CC[C@@H]1Oc2cc3[nH]c(=O)cc(C(F)(F)F)c3cc2N(CC(F)(F)F)[C@H]1C (racemic) [Compound 128]", 42),
    ("CCC1COc2cc3[nH]c(=O)cc(C(F)(F)F)c3cc2N1CC(F)(F)F (racemic) [Compound 145]", 30),
]

What does the record list as AR Antagonist CV-1 Cells Efficacy (%) for CCN1CCOc2cc3c(cc21)c(C(F)(F)F)cc(=O)n3C [Compound 104] ?
68

What does the record list as AR Antagonist CV-1 Cells Efficacy (%) for CC[C@H]1Oc2cc3[nH]c(=O)cc(C(F)(F)F)c3cc2N(CC(F)(F)F)[C@H]1C (racemic) [Compound 129] ?
76
